The reported numbers originate from patent US10208034B2.

# TARGET ENTITY: Ba/F3 Axl (Homo sapiens, UniProt P30530)
# Sequence (P30530 whole entry, change not shown): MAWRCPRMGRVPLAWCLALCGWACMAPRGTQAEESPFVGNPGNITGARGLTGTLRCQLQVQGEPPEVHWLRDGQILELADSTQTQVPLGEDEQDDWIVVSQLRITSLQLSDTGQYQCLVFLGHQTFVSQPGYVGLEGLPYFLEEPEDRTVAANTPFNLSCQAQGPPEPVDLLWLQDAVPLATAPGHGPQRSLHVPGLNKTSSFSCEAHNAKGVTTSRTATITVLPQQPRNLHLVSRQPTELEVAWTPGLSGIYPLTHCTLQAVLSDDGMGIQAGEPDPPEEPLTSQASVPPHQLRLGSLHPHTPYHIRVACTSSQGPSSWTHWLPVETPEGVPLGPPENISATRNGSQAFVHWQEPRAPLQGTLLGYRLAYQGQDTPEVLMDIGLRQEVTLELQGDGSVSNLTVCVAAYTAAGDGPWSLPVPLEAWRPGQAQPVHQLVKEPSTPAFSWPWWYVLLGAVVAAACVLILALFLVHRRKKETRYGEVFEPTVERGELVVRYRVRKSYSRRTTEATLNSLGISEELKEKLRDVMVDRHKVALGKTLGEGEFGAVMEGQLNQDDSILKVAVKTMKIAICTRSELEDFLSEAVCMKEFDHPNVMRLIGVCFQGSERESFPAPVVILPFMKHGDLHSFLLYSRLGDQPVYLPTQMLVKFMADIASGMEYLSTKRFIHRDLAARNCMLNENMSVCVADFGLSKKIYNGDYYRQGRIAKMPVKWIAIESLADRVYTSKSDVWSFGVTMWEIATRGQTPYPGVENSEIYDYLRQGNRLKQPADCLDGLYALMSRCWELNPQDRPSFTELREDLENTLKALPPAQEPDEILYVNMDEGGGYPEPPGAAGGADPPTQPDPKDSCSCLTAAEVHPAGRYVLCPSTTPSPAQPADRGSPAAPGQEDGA
# PROCEDURE TEXT: Proliferation suppression rate using mouse pro-B cell line (Ba/F3 Axl) stably expressing Axl (CellTiter-Glo)
# Assay type: cell-based
# REPORTED CONDITIONS: Ba/F3 Axl cells, 48 hours, read-out: IC50 value of proliferation suppression, Ba/F3 Axl
MEASURED METRIC: GI50 (nM)

Sample records with GI50:
1. COc1cc2nccc(Oc3ccc(NC(=O)c4cc5c(n(-c6ccccc6)c4=O)CCCNC5=O)nc3)c2cc1OC [Example 66]; 5.7
2. COc1cc2nccc(Oc3ccc(NC(=O)c4cc5ccc(N)cc5n(-c5ccccc5)c4=O)nc3)c2cc1OC [Example 73]; 0.76
3. COc1cc2nccc(Oc3ccc(NC(=O)c4cc5ccncc5n(-c5ccccc5)c4=O)nc3)c2cc1OC [Example 28]; 0.99

1. COc1cc2nccc(Oc3ccc(NC(=O)c4cc(C(C)=O)cn(-c5ccccc5)c4=O)nc3)c2cc1OC [Example 21]
2. COc1cc2nccc(Oc3ccc(NC(=O)c4c5c(cn(-c6ccccc6)c4=O)C(=O)CCC5)nc3)c2cc1OC [Example 42]
3. CC#CC(=O)N1CCc2cc(C(=O)Nc3ccc(Oc4ccnc5cc(OC)c(OC)cc45)cn3)c(=O)n(-c3ccccc3)c2C1 [Example 36]
Ranking field: GI50; order: falling. Give the order by naming the labels one after another as requested.
2, 1, 3
(2: 4.2 nM, 1: 0.96 nM, 3: 0.47 nM)
